B1: OAS1 (parent)
chain: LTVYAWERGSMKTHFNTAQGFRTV

Variants of: B1
test name: protein stability index of a GFP-peptide fusion (GPS, HEK-293T) (PSI 1-6); higher = more stable;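 note: lentivirally expressed fusions sorted by FACS into six bins by GFP to DsRed ratio, PSI derived from sequencing read proportions per bin multiplied by bin number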
condition summary: c terminus: a fixed tail appended
experimental readout: protein stability index
// return a plain number; no unit text

As a guide, the following entries are already answered.
1. T2G = 1.25
2. T2M = 1.69

Reported protein stability index for A18V was 3.42

Reported protein stability index for T13E was 2.06

Reported protein stability index for T2S was 2.21

Where do the numbers come from? From the supplement of paper PMC10567573.
